Readings of inhibition of growth at 16 ppm for the listed compounds
system: Septoria tritici; experiment: Microtiter test, activity against leaf blotch on wheat caused by Septoria tritici (Use Example 3); format: cell-based; settings: Zymoseptoria tritici, 168 h, read-out: Observed efficacy
// units = %; emit number, no label

| compound | inhibition of growth at 16 ppm [%] |
| --- | --- |
| CC1(C)[C@H](C(=O)O[C@H](C#N)c2cccc(Oc3ccccc3)c2)[C@@H]1C=C(Br)Br | 0 |
| CCOP(=S)(OCC)SCSC(C)(C)C | 14 |
| CC1(C)CNC(=NN=C(/C=C/c2ccc(C(F)(F)F)cc2)/C=C/c2ccc(C(F)(F)F)cc2)NC1 [Hydramethylnon, hydramethylnon] | 0 |
| O=S1OCC2C(CO1)C1(Cl)C(Cl)=C(Cl)C2(Cl)C1(Cl)Cl (centres unmarked) [Endosulfan, endosulfan] | 3 |

Alright, here's another compound for you.
Lab book: inhibition of growth at 16 ppm of CNC(=O)O/N=C/C(C)(C)SC noted as 7

Hey, just so you know, these numbers are from patent US8871679B2.
